# Test system: OVCAR-3 ovarian
# TEST_DETAILS: NCI tumour cell line growth inhibition, 48 h
PROPERTY_MEASURED: log10(TGI) (log10 of the value in µM)

| COMPOUND | log10(TGI) |
| --- | --- |
| CCn1c2ccc(C(=O)CCCN3CCCCC3)cc2c2cc(C(=O)CCCN3CCCCC3)ccc21 | 0.72 |
| CCOP(=O)(OCC)OC(C#N)c1ccc(-c2ccccc2)cc1 (stereo not given) | 1.59 |
| Cn1c2c(c3ccc(Cl)c(Cl)c31)C(C#N)C1(CCNCC1)NC2=O (stereo not given) | 0.46 |
| COc1ccc(-c2c3c(n(C4OC(CO)C(O)C(O)C4O)c(=S)c2C#N)CCC3)cc1 (stereo not given) | 1.84 |
| CCC(CO)Nc1nc(NCc2ccccc2)c2ncn(C(C)C)c2n1 (stereo not given) | 1.58 |
| Cc1cc(C)c(C(=O)c2no[n+]([O-])c2C(=O)c2c(C)cc(C)c(Br)c2C)c(C)c1Br | 1.47 |
| C/C(Cl)=N\OC(=O)Nc1ccc(C)cc1 | 1.54 |

====

# Test system: RPMI-8226 leukemia
# TEST_DETAILS: NCI tumour cell line growth inhibition, 48 h
Overview of reported log10 TGI across a group of molecules:
PROPERTY_MEASURED: log10 TGI (log10 of the value in µM)

| MOLECULE | log10 TGI |
| --- | --- |
| O=C1NC2CCCCC2N=C1CC(=O)c1ccc(Br)cc1 (stereo unspecified) | 0.85 |
| Cc1cc2c(cc1C)N(C(=O)CCl)CCN2C(=O)CCl | 0.43 |
| CN1C(=O)N(C)C2C1NN=c1s/c(=C\c3ccc(F)cc3)c(=O)n12 (stereo unspecified) | 0.95 |
| CCCCOc1ccc(OCCCCCCCCCC[N+](C)(C)C)cc1 | 0.37 |
| Cc1cc(C)c(C(=O)c2no[n+]([O-])c2C(=O)c2c(C)cc(C)c(Br)c2C)c(C)c1Br | 1.59 |

====

# System: EKVX NSCLC
# TEST_DETAILS: NCI tumour cell line growth inhibition, 48 h

| MOLECULE | TGI |
| --- | --- |
| Cc1cccc(-n2c(=S)[nH]c3c(sc(=O)n3-c3ccccc3C)c2=O)c1 | > 100 µM |
| C=C1C(=O)O[C@H]2[C@H]1CC/C(COC(=O)c1cc3cc(Cl)ccc3[nH]1)=C\CC[C@@]1(C)O[C@@H]21 | 2.91 µM |
| COC(=O)c1ccccc1NC(=O)C(=O)NNC(=O)c1ccncc1 | > 100 µM |
| O=c1nc2c(c(-c3ccc(Br)cc3)[nH]1)COC/C2=C\c1ccc(Br)cc1 | > 50 µM |
| COC(=O)/C(=N\NC(C)(C)C)C(C(=O)C(=O)Nc1cc(C)ccc1C)c1nc2ccccc2[nH]c1=O (stereo not given) | > 100 µM |

====

# System: MDA-N
# TEST_DETAILS: NCI tumour cell line growth inhibition, 48 h
Overview of reported TGI across a group of molecules:

| MOLECULE | SYSTEM | TGI |
| --- | --- | --- |
| COc1ccc(-c2c3c(n(C4OC(CO)C(O)C(O)C4O)c(=S)c2C#N)CCC3)cc1 (stereo unspecified) | MDA-N | > 100 µM |
| O=c1nc2c(c(-c3ccc(Br)cc3)[nH]1)COC/C2=C\c1ccc(Br)cc1 | MDA-N | > 50 µM |
| COC(=O)C1C(C(=O)OC)C2(OC(c3ccc(Cl)cc3)=CC2=O)C12OC(c1ccc(Cl)cc1)=CC2=O (stereo unspecified) | MDA-N | 47.3 µM |
| Cc1cc2c(O)c(c1)CN(CC(=O)O)Cc1cc(C)cc(c1O)CN(CC(=O)O)Cc1cc(C)cc(c1O)CN(CC(=O)O)C2 | MDA-N | > 100 µM |
| COc1ccc(Nc2nc(N)c(C(=O)c3c[nH]c4ccccc34)s2)cc1 | MDA-N | 0.878 µM |
| COC(=O)C1(CCCCCBr)CCCCCCCCCCC1=O (stereo unspecified) | MDA-N | > 100 µM |
| c1cncc(CC2(c3cc4ccccc4[nH]3)OCCO2)c1 | MDA-N | > 100 µM |
| COc1cc(CC(C)NC(C)=O)cc(OC)c1 (stereo unspecified) | MDA-N | > 100 µM |
| COc1cc(C(c2c(O)c3ccccc3oc2=O)c2c(O)c3ccccc3oc2=O)cc(Br)c1O | MDA-N | 36 µM |
| CCn1c2ccc(C(=O)CCCN3CCCCC3)cc2c2cc(C(=O)CCCN3CCCCC3)ccc21 | MDA-N | 5.7 µM |
| O=C1C=CC(=O)N1n1c(-c2ccccc2)n[nH]c1=O | MDA-N | > 100 µM |

====

Overview of reported TGI across a group of compounds:
# Test system: HCT-15 colon
# TEST_DETAILS: NCI tumour cell line growth inhibition, 48 h
PROPERTY_MEASURED: TGI

| COMPOUND | SYSTEM | PROPERTY_MEASURED | ENDPOINT_RESULT |
| --- | --- | --- | --- |
| Cc1cc(C)c(C(=O)c2no[n+]([O-])c2C(=O)c2c(C)cc(C)c(Br)c2C)c(C)c1Br | HCT-15 colon | TGI | 30 µM |
| COc1ccc(-c2oc3c(OC)c(OC)c(OC)c(OC)c3c(=O)c2OC)cc1OC | HCT-15 colon | TGI | > 100 µM |
| CC1C(NNc2ccccc2)Oc2cc3c(cc2C1c1ccccc1O)OCO3 (stereo not given) | HCT-15 colon | TGI | 15.2 µM |
| NC(N)=NCCC1OC(=O)C2=C1c1c(O)ccc3nccc(c13)O2 (stereo not given) | HCT-15 colon | TGI | > 100 µM |
| O=C(O)C1CCCCC1C(=O)O.[NH-]C1CCC1.[NH2-].[Pt+2] (stereo not given) | HCT-15 colon | TGI | 34.5 µM |
| COc1cc(-c2n/c(=C\c3c(O)[nH]c4ccc(Cl)cc34)cc3c2=Nc2ccccc2-3)ccc1F | HCT-15 colon | TGI | 6.98 µM |
| CC(C)(C)OC(=O)NC(Cc1ccccc1)NC(=O)NC(=O)OCc1ccccc1 (stereo not given) | HCT-15 colon | TGI | > 100 µM |
| COc1cc2cc(C(=O)N3C[C@H](CCl)c4c3cc(N)c3ccccc43)[nH]c2c(OC)c1OC | HCT-15 colon | TGI | > 50 µM |
| CN1C(=O)N(C)C(O)C(Cl)(Br)C1=O (stereo not given) | HCT-15 colon | TGI | > 100 µM |
| COc1cc(C(=O)Nc2cc3c(cc2Oc2cc(C)cc(C)c2)C(=O)N(C)[C@@H](CC(=O)N(C)O)C(=O)N3)c(Br)c(OC)c1OC | HCT-15 colon | TGI | 2.04 µM |
| CC1=NN(c2nc(N)nc(-c3sccc3N)n2)C(C)(C)C1 | HCT-15 colon | TGI | > 100 µM |
| CCOC(=O)C1(C#N)C(c2ccccc2)CC(O)(c2ccc(Cl)cc2)C(C(=O)c2ccc(Cl)cc2)C1c1ccccc1 (stereo not given) | HCT-15 colon | TGI | > 100 µM |
| C[C@]12CCC(=O)[C@@H](CCC3=CC(=O)C=CC3=O)[C@@H]1CCC2=O | HCT-15 colon | TGI | > 31.6 µM |
| CCOP(=O)(OCC)OC(C#N)c1ccc(-c2ccccc2)cc1 (stereo not given) | HCT-15 colon | TGI | 32.8 µM |
| COc1cc(/C=C2\C(=O)Nc3ccc(N(C)C)cc32)cc(OC)c1OC | HCT-15 colon | TGI | 49.8 µM |
| COc1ccc2cc(-c3c(-c4ccncc4)nc(-c4ccc(S(C)(=O)=O)cc4C)n3C)ccc2c1 | HCT-15 colon | TGI | > 25 µM |
| Nc1nc(Cl)cc(NCC2(O)CC2)n1 | HCT-15 colon | TGI | > 100 µM |
| CCCOc1ccc2nc(NC(=O)OC)[nH]c2c1 | HCT-15 colon | TGI | > 100 µM |
| O=c1cc(-c2ccncc2)[nH]c2cc3c(cc12)OCO3 | HCT-15 colon | TGI | > 100 µM |
| N#CC1(O)CCCCCCCCCCC1 | HCT-15 colon | TGI | > 100 µM |
| O=C(/C=C/C(=O)N1CCCC1)N1CCCC1 | HCT-15 colon | TGI | > 100 µM |
| OCCOCn1nncc1Cn1ncc2c(SCc3ccccc3)ncnc21 | HCT-15 colon | TGI | > 100 µM |
| CCCCN(CCCC)c1c([N+](=O)[O-])c(=O)nc2ccccn12 | HCT-15 colon | TGI | > 100 µM |
| O=C1N=C2SC(=S)NC(=S)N2NC12c1ccccc1-c1ccccc12 | HCT-15 colon | TGI | > 10 µM |
| C=C1C(=O)O[C@H]2[C@H]1CC/C(COC(=O)c1cc3cc(Cl)ccc3[nH]1)=C\CC[C@@]1(C)O[C@@H]21 | HCT-15 colon | TGI | 2.43 µM |
| O=C(OCCN=c1c2ccccc2ccc2ccccc12)c1ccccc1 | HCT-15 colon | TGI | > 100 µM |
| CCOC(=O)c1s/c(=N\Nc2nc3ccccc3cc2C2OCCO2)n(Cc2ccccc2)c1C | HCT-15 colon | TGI | > 100 µM |
| Cc1ccc(-c2cc(-c3ccco3)c(C#N)c(=O)n2C2OC(OC(=O)c3ccccc3)C(OC(=O)c3ccccc3)C2OC(=O)c2ccccc2)cc1 (stereo not given) | HCT-15 colon | TGI | > 100 µM |
| Nc1ccccc1C#C/C=C\C#Cc1ccccc1[N+](=O)[O-] | HCT-15 colon | TGI | 21.7 µM |
| Cc1cc2ncn(C3CCCCO3)c2cc1C (stereo not given) | HCT-15 colon | TGI | > 100 µM |

Cited source for all entries: PubChem BioAssay (NCI)
